ASSAY TARGET: SHP2-C SH2;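 further: peptide library displayed on the E. coli surface as eCPX fusions, selected cells deep-sequenced, score is each peptide's frequency after selection divided by its frequency in the input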
MEASUREMENT DESCRIPTION: SH2 binding enrichment of the phosphorylated peptide, bacterial display (enrichment ratio); higher = better substrate or ligand; peptides without Tyr show the background
Readings of SH2 binding enrichment for the listed sequences

[
  {
    "SEQ STRING": "ALAHKCHGGGG [HBB_Y146_Y146C]",
    "SH2 binding enrichment": 0.761
  },
  {
    "SEQ STRING": "MIRSTYALGGL [CPS1_Y590_A589T]",
    "SH2 binding enrichment": 0.626
  },
  {
    "SEQ STRING": "LADMNYVHCDL [EPHB2_Y742_R745C]",
    "SH2 binding enrichment": 0.83
  },
  {
    "SEQ STRING": "AHPIIYEIIEA [PYKtide_E_2014]",
    "SH2 binding enrichment": 1.07
  },
  {
    "SEQ STRING": "TLQSMFGCDVG [HLA-B_Y123_Y123F]",
    "SH2 binding enrichment": 0.684
  },
  {
    "SEQ STRING": "LFQAKYQIRYR [CRLF1_Y272]",
    "SH2 binding enrichment": 1.67
  },
  {
    "SEQ STRING": "ISGGGYRARPA [FGB_Y71]",
    "SH2 binding enrichment": 0.552
  },
  {
    "SEQ STRING": "VHLFAYDWISI [BEST1_Y227_G222V_YF]",
    "SH2 binding enrichment": 1.36
  },
  {
    "SEQ STRING": "VGSIKYLKREW [KCNMA1_Y885_E884K]",
    "SH2 binding enrichment": 0.723
  },
  {
    "SEQ STRING": "RGRSTYFWPRP [GAGE12J_Y9_YF]",
    "SH2 binding enrichment": 0.704
  },
  {
    "SEQ STRING": "RLLRGHDQSAY [HLA-C_Y137_Y137H]",
    "SH2 binding enrichment": 0.747
  },
  {
    "SEQ STRING": "VASSLYDILAR [GLB1_Y294]",
    "SH2 binding enrichment": 0.67
  },
  {
    "SEQ STRING": "KLMTEYKRRKQ [ARFGEF3_Y2029_K2031R]",
    "SH2 binding enrichment": 0.636
  },
  {
    "SEQ STRING": "RGFRVCFTPDS [PTPRF_Y450_Y450C_YF]",
    "SH2 binding enrichment": 0.615
  },
  {
    "SEQ STRING": "CEHRGYLFLAI [TEK_Y897_YF]",
    "SH2 binding enrichment": 1.19
  },
  {
    "SEQ STRING": "AGQKDYDRLRP [RAC3_Y64_E62K]",
    "SH2 binding enrichment": 0.688
  },
  {
    "SEQ STRING": "EFKKKYSDADI [CKAP5_Y1860_YF]",
    "SH2 binding enrichment": 0.616
  },
  {
    "SEQ STRING": "QRPGPYDRPGA [HNRNPH2_Y210]",
    "SH2 binding enrichment": 1.03
  },
  {
    "SEQ STRING": "GLGGGCGGASG [KRT8_Y54_Y54C]",
    "SH2 binding enrichment": 0.712
  },
  {
    "SEQ STRING": "KVMANYMFKAG [MAML2_Y513_YF]",
    "SH2 binding enrichment": 0.697
  },
  {
    "SEQ STRING": "RSSKMYFKTRS [LPL_Y329_L330F]",
    "SH2 binding enrichment": 0.747
  },
  {
    "SEQ STRING": "FSAGTYPRLEE [SYCN_Y108]",
    "SH2 binding enrichment": 0.612
  },
  {
    "SEQ STRING": "GHGEEYPAAGA [NOTCH3_Y2221]",
    "SH2 binding enrichment": 0.626
  },
  {
    "SEQ STRING": "FETVKYINNER [ABCB7_Y345_F346I_YF]",
    "SH2 binding enrichment": 0.713
  },
  {
    "SEQ STRING": "KVGPGYLGSRG [RET_Y826_G830R]",
    "SH2 binding enrichment": 0.769
  },
  {
    "SEQ STRING": "GGYTWYCDGKK [PROS1_Y266_C265W]",
    "SH2 binding enrichment": 0.524
  },
  {
    "SEQ STRING": "QQLQGYIPSNF [FRK_Y99_YF]",
    "SH2 binding enrichment": 0.519
  },
  {
    "SEQ STRING": "ICTVDYLLRLQ [RYR1_Y3921]",
    "SH2 binding enrichment": 0.813
  },
  {
    "SEQ STRING": "QGIPWYHSQSP [FOXF1_Y331_R330W]",
    "SH2 binding enrichment": 1.14
  }
]

====

ASSAY TARGET: FGFR1 (UniProt P11362)
Sequence (P11362 whole entry, looked up): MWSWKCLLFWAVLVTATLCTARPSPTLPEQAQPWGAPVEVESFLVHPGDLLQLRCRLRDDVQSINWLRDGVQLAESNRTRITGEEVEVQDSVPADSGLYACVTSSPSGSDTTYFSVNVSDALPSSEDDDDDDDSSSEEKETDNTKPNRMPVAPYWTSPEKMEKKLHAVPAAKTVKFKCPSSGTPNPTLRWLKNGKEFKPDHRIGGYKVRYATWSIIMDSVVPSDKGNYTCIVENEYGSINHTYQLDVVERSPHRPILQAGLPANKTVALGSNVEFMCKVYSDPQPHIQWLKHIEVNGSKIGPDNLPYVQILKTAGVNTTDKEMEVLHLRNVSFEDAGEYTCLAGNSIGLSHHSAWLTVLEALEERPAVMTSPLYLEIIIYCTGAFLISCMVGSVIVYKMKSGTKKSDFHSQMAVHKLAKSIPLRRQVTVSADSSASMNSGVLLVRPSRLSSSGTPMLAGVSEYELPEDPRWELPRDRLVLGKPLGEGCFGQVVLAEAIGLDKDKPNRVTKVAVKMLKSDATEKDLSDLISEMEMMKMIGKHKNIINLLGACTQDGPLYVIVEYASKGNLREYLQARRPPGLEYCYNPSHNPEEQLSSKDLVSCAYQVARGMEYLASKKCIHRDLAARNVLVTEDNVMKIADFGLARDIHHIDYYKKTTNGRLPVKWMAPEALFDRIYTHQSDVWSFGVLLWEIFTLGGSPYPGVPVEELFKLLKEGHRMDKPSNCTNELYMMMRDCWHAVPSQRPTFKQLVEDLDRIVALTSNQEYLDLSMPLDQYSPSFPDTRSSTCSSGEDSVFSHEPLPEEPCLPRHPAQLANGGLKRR
MEASUREMENT DESCRIPTION: phosphorylation enrichment, bacterial display (enrichment ratio); higher = better substrate or ligand; peptides without Tyr show the background

[
  {
    "SEQ STRING": "IHHIDYFKKTT [FGFR1_Y653_YF]",
    "phosphorylation enrichment": 0.481
  },
  {
    "SEQ STRING": "KYLENYYDLKK [MMP3_Y41]",
    "phosphorylation enrichment": 7.68
  },
  {
    "SEQ STRING": "PESIMYRKFTT [NTRK3_Y744]",
    "phosphorylation enrichment": 0.384
  },
  {
    "SEQ STRING": "SNYRAYATEPQ [TNNI3_Y29_H34Q]",
    "phosphorylation enrichment": 0.389
  },
  {
    "SEQ STRING": "LFQAKYQIRYR [CRLF1_Y272]",
    "phosphorylation enrichment": 0.566
  },
  {
    "SEQ STRING": "WQQQSYLDSGI [CTNNB1_Y30]",
    "phosphorylation enrichment": 0.479
  },
  {
    "SEQ STRING": "ELANYYKLHHI [AK7_Y391]",
    "phosphorylation enrichment": 6.91
  },
  {
    "SEQ STRING": "MKGEYYRYLAE [YWHAG_Y131_D129E]",
    "phosphorylation enrichment": 4.14
  },
  {
    "SEQ STRING": "TTTQAYRVNER [PRKN_Y391_D394N]",
    "phosphorylation enrichment": 0.421
  },
  {
    "SEQ STRING": "LRSELYSLIAR [PHIP_Y16_F17S]",
    "phosphorylation enrichment": 0.693
  },
  {
    "SEQ STRING": "GVSFIYTIDGS [DCX_Y105_R102S_YF]",
    "phosphorylation enrichment": 0.496
  },
  {
    "SEQ STRING": "YLENYYDLKKD [MMP3_Y42]",
    "phosphorylation enrichment": 9.43
  },
  {
    "SEQ STRING": "VGSIKYLKREW [KCNMA1_Y885_E884K]",
    "phosphorylation enrichment": 0.412
  },
  {
    "SEQ STRING": "SLNEGYAKDFD [FBP1_Y216_R218K]",
    "phosphorylation enrichment": 0.566
  }
]
